ASSAY_SUMMARY: NutriPro test: serum, RBC and WBC nutrient values before and after ATB / customized blend
Format: in vivo, human
EXPERIMENTAL_CONDITIONS: human, in vivo; Level: Questionnaire; person; after customized blend; read-out: Follow-up Nutrient Level
READOUT_KIND: concentration at 3 months (µM)

a = NC(=O)NCCC[C@H](N)C(=O)O
b = N=C(N)NCCC[C@H](N)C(=O)O
### Prompt Which of the two items, a and b , has the greater recorded concentration at 3 months? Write down the label of the entry you select.
### Response b

* * *

ASSAY_SUMMARY: Vibrant Absorption Factor (VAF): difference of post- and pre-supplementation nutrient values divided by ATB dosage
EXPERIMENTAL_CONDITIONS: person one; serum
READOUT_KIND: VAF

A = NC(=O)CC[C@H](N)C(=O)O
B = C[N+](C)(C)CC(O)CC(=O)[O-] (centres unmarked)
### Prompt Which of the two items, A and B , has the greater recorded VAF? Write down the label of the entry you select.
### Response A
(A: 3.34, B: 1.08)
